target: recombinant human Myt1 (full length PKMYT1) (Homo sapiens (Human)); test: Recombinant human Myt1 kinase assay (ADP-Glo); conditions: 10 μM ATP
Sequence (Q99640 whole entry): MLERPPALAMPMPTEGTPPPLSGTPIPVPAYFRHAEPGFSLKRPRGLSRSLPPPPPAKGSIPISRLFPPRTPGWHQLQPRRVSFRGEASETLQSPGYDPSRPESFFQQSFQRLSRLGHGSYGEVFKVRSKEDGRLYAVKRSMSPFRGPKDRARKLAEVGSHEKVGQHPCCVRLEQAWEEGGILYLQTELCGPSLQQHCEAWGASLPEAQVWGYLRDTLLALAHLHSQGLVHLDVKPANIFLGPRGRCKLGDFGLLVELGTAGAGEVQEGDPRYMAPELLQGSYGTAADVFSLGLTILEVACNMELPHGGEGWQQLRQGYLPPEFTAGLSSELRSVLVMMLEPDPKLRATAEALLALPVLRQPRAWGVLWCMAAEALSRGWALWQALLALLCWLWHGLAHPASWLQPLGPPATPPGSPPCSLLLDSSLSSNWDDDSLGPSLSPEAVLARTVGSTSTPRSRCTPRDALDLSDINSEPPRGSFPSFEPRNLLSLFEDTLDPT
pIC50: −log10 of the molar value.

molecule	pIC50
Cc1ccc2[nH]ncc2c1-c1nc(-c2cccnc2NC2CCOCC2C)nc(C(N)=O)c1N (centres unmarked) [Compound 606]	8.70
COc1ccc(-c2nc(C(N)=O)c(N)c(-c3c(C)ccc4[nH]ncc34)n2)c(NC(=O)C2(C)CC2)c1 [Compound 455]	8.22
Cc1ccc(O)c(C)c1-c1cc(-c2nc3ccccc3o2)nc(C(N)=O)c1N [Compound 56]	8.15
Cc1ccc2[nH]ncc2c1-c1nc(-c2ccncc2NC(=O)C(C)(C)C)nc(C(N)=O)c1N [Compound 483]	8.70
Cc1ccc2[nH]ncc2c1-c1nc(-c2ccc(CN3CCOCC3)cc2)nc(C(N)=O)c1N [Compound 147]	6.66

###

biological target: recombinant human Myt1 (full length PKMYT1) (Homo sapiens (Human)); assay: Recombinant human Myt1 kinase assay (ADP-Glo); settings: 10 μM ATP
pIC50: −log10 of the molar value.
The following molecules are listed with their measured pIC50 values.

molecule	assayed system	relation symbol	pIC50
Cc1ccc2[nH]ncc2c1-c1nc(-c2ccccc2)nc(C(N)=O)c1Cl	recombinant human Myt1 (full length PKMYT1) (Homo sapiens (Human))	<	5.70
Cc1ccc2[nH]ncc2c1-c1nc(-c2ccc(N(C)C)cc2)nc(C(N)=O)c1N	recombinant human Myt1 (full length PKMYT1) (Homo sapiens (Human))	=	7.24
Cc1ccc2[nH]ncc2c1-c1nc(-c2ccns2)nc(C(N)=O)c1N	recombinant human Myt1 (full length PKMYT1) (Homo sapiens (Human))	=	7.64
Cc1ccc2[nH]ncc2c1-c1cc(-c2cccc(OC3CCCOC3)n2)nc(C(N)=O)c1N (stereo not drawn)	recombinant human Myt1 (full length PKMYT1) (Homo sapiens (Human))	=	8.15
Cc1ccc(O)c(C)c1-c1cc(-c2ccnc(N)c2)cc(C(N)=O)c1N	recombinant human Myt1 (full length PKMYT1) (Homo sapiens (Human))	=	8.22
Cc1ccc2[nH]ncc2c1-c1nc(-c2ccc3cnn(C)c3c2)nc(C(N)=O)c1N	recombinant human Myt1 (full length PKMYT1) (Homo sapiens (Human))	=	7.60
Cc1ccc2[nH]ncc2c1-c1cc(-c2ccnc(OC3CN(C(=O)OC(C)(C)C)C3)n2)nc(C(N)=O)c1N	recombinant human Myt1 (full length PKMYT1) (Homo sapiens (Human))	=	6.72
Cc1ccc2[nH]ncc2c1-c1nc(-c2cccnc2NC[C@@H]2CCOC2)nc(C(N)=O)c1N	recombinant human Myt1 (full length PKMYT1) (Homo sapiens (Human))	=	8.40
COc1cc(C)cc(-c2nc(C(N)=O)c(N)c(-c3c(C)ccc4[nH]ncc34)n2)c1	recombinant human Myt1 (full length PKMYT1) (Homo sapiens (Human))	=	7.64
Cc1ccc2[nH]ncc2c1-c1nc(-c2cccc3c2NCC3)nc(C(N)=O)c1N	recombinant human Myt1 (full length PKMYT1) (Homo sapiens (Human))	=	7.54
Cc1ccc(O)cc1-c1nc(-c2ccccc2)nc(C(N)=O)c1N	recombinant human Myt1 (full length PKMYT1) (Homo sapiens (Human))	=	7.96
Cc1ccc2[nH]ncc2c1-c1nc(-c2cc(F)c(F)cc2NC(=O)C2(C(F)(F)F)CCC2)nc(C(N)=O)c1N	recombinant human Myt1 (full length PKMYT1) (Homo sapiens (Human))	=	7.74

Every entry's value here was drawn from patent US20250304537A1.
